Values were extracted from ChEMBL document CHEMBL2218924.

target: AMP-activated protein kinase (AMPK) alpha-1/beta-1/gamma-1 (Homo sapiens) (UniProt P54619+Q9Y478+Q13131); details: at 1 µM
Sequence (P54619 whole entry): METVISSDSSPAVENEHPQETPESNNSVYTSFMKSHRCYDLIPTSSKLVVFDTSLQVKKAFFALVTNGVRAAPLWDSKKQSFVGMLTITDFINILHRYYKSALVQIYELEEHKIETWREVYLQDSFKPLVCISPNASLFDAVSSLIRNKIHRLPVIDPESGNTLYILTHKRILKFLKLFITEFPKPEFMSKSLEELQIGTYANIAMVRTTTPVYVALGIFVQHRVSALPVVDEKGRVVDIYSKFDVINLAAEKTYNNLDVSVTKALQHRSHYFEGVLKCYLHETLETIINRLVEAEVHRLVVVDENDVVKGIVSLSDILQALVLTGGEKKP
Sequence (Q13131 whole entry partner): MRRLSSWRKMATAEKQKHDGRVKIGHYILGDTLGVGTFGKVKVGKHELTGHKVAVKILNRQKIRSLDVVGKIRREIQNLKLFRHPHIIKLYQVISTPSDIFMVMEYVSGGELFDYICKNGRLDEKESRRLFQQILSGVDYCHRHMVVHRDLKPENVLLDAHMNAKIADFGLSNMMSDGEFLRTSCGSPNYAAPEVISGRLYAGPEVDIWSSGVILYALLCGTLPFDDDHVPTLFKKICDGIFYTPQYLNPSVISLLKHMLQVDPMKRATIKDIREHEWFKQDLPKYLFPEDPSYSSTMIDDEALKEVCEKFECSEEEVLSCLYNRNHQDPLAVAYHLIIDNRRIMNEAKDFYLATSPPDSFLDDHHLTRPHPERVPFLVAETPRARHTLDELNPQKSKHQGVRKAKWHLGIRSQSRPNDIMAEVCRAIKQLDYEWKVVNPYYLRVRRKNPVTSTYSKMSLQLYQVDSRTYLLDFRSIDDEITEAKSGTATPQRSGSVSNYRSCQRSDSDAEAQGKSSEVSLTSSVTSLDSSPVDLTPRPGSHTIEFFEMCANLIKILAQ
Sequence (Q9Y478 2-270 partner limits assumed): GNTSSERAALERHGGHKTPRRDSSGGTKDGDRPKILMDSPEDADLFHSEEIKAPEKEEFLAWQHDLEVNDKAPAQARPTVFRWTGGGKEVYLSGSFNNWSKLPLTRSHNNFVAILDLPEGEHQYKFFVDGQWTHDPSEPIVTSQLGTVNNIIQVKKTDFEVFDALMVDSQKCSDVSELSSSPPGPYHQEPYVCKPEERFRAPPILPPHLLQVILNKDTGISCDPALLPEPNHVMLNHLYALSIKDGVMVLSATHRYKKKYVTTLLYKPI
Record form. Attribute: residual activity. Fill in for each entry.
Answers are plain numbers, in %.

Please review the entries below; each comes with its answer.
O=C1NC(=O)c2c1c1c3ccccc3[nH]c1n1cncc21    49
O=C1NC(=O)C(c2cn(CCCn3ccnc3)c3ccccc23)=C1Nc1ccccc1    74
Nc1n[nH]c2nc3ccccc3nc12    86

Field: next compound
Q: Which residual activity reading was recorded for the compound "CCOC(=O)c1c(C)[nH]c(/C=C2\C(=O)Nc3ccccc32)c1C" ?
A: 80

###

Please go through the items and note down their residual activity.
biological target: Ephrin type-A receptor 2 (Homo sapiens) (UniProt P29317); settings: at 1 µM
Sequence (P29317 whole entry): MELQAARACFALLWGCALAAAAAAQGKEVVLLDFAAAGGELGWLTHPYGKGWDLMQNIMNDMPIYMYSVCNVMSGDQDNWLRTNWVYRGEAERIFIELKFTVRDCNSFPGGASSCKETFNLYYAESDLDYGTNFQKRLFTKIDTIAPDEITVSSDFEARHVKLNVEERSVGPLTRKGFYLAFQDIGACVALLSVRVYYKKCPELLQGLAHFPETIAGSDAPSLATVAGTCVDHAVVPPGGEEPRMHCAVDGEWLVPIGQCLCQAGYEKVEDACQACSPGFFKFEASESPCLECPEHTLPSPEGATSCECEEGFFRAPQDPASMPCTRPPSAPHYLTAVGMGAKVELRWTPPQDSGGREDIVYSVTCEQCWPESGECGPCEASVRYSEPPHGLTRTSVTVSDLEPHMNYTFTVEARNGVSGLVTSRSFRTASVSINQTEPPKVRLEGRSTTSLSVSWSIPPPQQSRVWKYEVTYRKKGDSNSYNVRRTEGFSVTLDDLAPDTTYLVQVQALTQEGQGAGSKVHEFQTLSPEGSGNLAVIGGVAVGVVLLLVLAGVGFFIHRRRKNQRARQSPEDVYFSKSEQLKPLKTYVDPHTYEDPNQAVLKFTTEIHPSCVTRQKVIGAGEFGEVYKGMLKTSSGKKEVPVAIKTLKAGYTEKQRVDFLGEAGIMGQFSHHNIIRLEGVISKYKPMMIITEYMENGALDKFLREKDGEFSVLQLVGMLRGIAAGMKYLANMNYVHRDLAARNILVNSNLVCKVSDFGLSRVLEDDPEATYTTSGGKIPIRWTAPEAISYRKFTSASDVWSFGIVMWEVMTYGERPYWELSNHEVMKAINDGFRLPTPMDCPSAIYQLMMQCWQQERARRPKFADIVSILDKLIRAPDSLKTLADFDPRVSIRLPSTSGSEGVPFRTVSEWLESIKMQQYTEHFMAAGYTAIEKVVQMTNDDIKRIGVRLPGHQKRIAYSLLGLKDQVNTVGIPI
Numbers only, in %.

Here's what some known entries look like.
COc1cc2ncnc(Nc3cccc(Cl)c3)c2cc1OC    89
COc1ccc2c(c1)c(C1=C(c3c[nH]c4ccccc34)C(=O)NC1=O)cn2CCCN(C)C    104
CCCCc1c(-c2ccc(OC)cc2)[nH]c2nccnc12    87
NC(=O)Nc1sc(-c2ccc(F)cc2)cc1C(N)=O    32
O=C(c1ccccc1)c1ccc(N2CCOCC2)cc1O    99

Could you report residual activity for every entry in the following list?
1. CC(C)[C@H](CO)Nc1nc(Nc2cc(N)cc(Cl)c2)c2ncn(C(C)C)c2n1
2. CN(C)S(=O)(=O)c1ccc2c(c1)/C(=C/c1cc3c([nH]1)CCCC3)C(=O)N2
3. CC(C)c1nn(-c2c(Cl)cccc2Cl)c2nc(Cc3ccc(OCCO)cc3)[nH]c(=O)c12
4. CCCCc1c(-c2ccc(O)cc2)[nH]c2nccnc12
5. CC(C)(C)n1nc(Cc2cccc3ccccc23)c2c(N)ncnc21
6. Fc1ccc(-c2nc3n(c2-c2ccncc2)CCS3)cc1
7. CC(C)(C)c1nc2c3ccc(F)cc3c3c(=O)[nH]ccc3c2[nH]1

A:
1: 88; 2: 89; 3: 96; 4: 82; 5: 33; 6: 99; 7: 103

###

target: Glycogen synthase kinase-3 beta (Homo sapiens); details: at 10 µM
property.label: residual activity (%)
Answers are plain numbers, in %.

As a guide, the following entries are already answered.
Nc1nccc(-c2c(-c3ccc(F)cc3)ncn2C2CCNCC2)n1    64
O=C1NC(=O)c2c1c1c3ccccc3[nH]c1n1cncc21    29
COc1cc2nccc(Oc3ccc(NC(=S)NC(=O)c4ccccc4C)cc3)c2cc1OC    99
CCCC(=O)Oc1ccc2[nH]c(C(=O)c3cc4ccccc4[nH]3)cc2c1    95
O=C1C(Cl)=C(N2C(=O)CCC2=O)C(=O)c2ccccc21    93

Please report residual activity for every entry that follows.
1. NCCNc1ncc(C(N)=O)c(Nc2cccc(C(F)(F)F)c2)n1
2. NC(=O)c1ccc(-c2nc(-c3ccc4c(c3)OCCO4)c(-c3ccccn3)[nH]2)cc1
3. O=C1Cc2c([nH]c3ccc([N+](=O)[O-])cc23)-c2ccccc2N1
4. N#C/C(=C1/Nc2ccccc2S1)c1ccnc(NCCc2cccnc2)n1
5. O=C(CCCc1ccc(-c2ccccc2F)cc1)Nc1ccc(O)cc1
6. CC(C)(C)n1nc(Cc2cccc3ccccc23)c2c(N)ncnc21
7. O=C(c1ccccc1)c1ccc(N2CCOCC2)cc1O

A:
26
98
3
1
79
65
87

Provide each entry's residual activity from the list below.
1. CN(C)S(=O)(=O)c1ccc2c(c1)/C(=C/c1cc3c([nH]1)CCCC3)C(=O)N2
2. Nc1n[nH]c2nc3ccccc3nc12
3. O=C1Nc2ccccc2/C1=C\c1c(Cl)[nH]c2ccccc12
4. N#Cc1c(NC(=O)c2cccc3ccccc23)sc2c1CCCC2
5. O=C(O)/C=C/c1cc(Br)c(Br)c(Br)c1Br
6. O=C1NC(=O)C(c2cn(CCCn3ccnc3)c3ccccc23)=C1Nc1ccccc1

A:
1. 94
2. 80
3. 80
4. 100
5. 106
6. 3

// each compound listed below needs its residual activity
1. O=C1NC(=O)C(c2cn(CCCO)c3ncccc23)=C1c1cnccn1
2. Nc1ncnc2[nH]nc(Nc3ccc(F)cc3)c12
3. CCCCc1c(-c2ccc(OC)cc2)[nH]c2nccnc12
4. O=C1NC(=O)C(c2c[nH]c3ccccc23)=C1c1c[nH]c2ccccc12
5. CC(C)c1nn(-c2c(Cl)cccc2Cl)c2nc(Cc3ccc(OCCO)cc3)[nH]c(=O)c12
6. COc1cc2c(cc1OC)-c1n[nH]c(Nc3cccc(F)c3)c1C2

A:
10
93
71
6
45
75

Look up residual activity for the entries below, preserving their order.
1. O=C1Nc2ccc(Cl)cc2/C1=C/c1cc(Cl)c(O)c(Cl)c1
2. COc1ccc(COc2ccc(Cc3cnc(N)nc3N)cc2OC)cc1

A:
44
80
